# TESTED TARGET: T1, human DC-SIGN (full length, expressed on cells) (human, UniProt Q9NNX6 1-404)
# T1 construct: Also used for DC-SIGN on human monocyte-derived cells and on cells of human DC-SIGN transgenic mice in the functional rows; also called CD209; human DC-SIGN CHO
# T1 sequence: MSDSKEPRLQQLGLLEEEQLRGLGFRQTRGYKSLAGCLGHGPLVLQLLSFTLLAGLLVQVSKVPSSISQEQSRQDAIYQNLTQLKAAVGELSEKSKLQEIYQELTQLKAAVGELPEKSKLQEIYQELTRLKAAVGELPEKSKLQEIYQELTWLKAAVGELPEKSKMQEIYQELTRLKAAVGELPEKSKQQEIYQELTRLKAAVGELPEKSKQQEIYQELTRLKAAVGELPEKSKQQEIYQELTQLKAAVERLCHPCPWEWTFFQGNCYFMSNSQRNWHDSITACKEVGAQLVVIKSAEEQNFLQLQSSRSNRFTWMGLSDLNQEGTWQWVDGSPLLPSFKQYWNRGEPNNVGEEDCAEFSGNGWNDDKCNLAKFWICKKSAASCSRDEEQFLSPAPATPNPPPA
# EXPERIMENT NOTES: flow cytometry, IgG titrated on human DC-SIGN K562 cells
MEASUREMENT TYPE: EC50 (µg/mL)
// return numeric value only (unit: µg/mL, not printed)

Fill blank: measured EC50 of the binder 958N05 Parental (antibody, V domains shown) VH: QVTLRESGPALVKPTQTLTLTCTFSGFSLSTSGISVSWIRQPPGKALEWLALIDWDDDKYYSTSLKTRLTISKDTSKNQVVLTMTNMDPVDTATYYCARTPSGSYGRYFDLWGRGTLVTVSS VL: DIQLTQSPSTLSASVGDRVTITCRASQSISNWLAWYQQKPGKAPKLLIYKASSLESGVPSRFTGSGSGTEFTLTISSLQPDDFATYYCQQYNSYWTFGQGTKVEIKR is ____.
0.05

Fill blank: measured EC50 of the binder 906C18 Parental (antibody, V domains shown) VH: EVQLVESGGGLVQPGGSLRLSCAASGFTFNNYWMNWVRQAPGKGLEWVANIRQDGSEKYYVDSVKGRFTISRDNAKNSLFLQMNSLRAEDTAVYYCARERAYCSTTSCPDYSNDYWGQGTLVTVSS VL: EIVMTQSPATLSVSPGERATLSCRASQTINNNLAWFQQKPGQTPRLLIYGASTGATGIPARFSGSGSGTEFTLTISSLQSEDFAVYYCQQYNNWPRGLTFGGGTKVEIKR is ____.
1.72

Shift focus to the following entry.
Fill blank: measured EC50 of the binder 952G04 Parental (antibody, V domains shown) VH: QVTLRESGPALVKPTQTLTLTCTFSGFSLSTSGVSVTWIRQPPGKALEWLALIDWDDDKYYSTSLKTRLAISKDTSKNQVVLTMTNMDPVDTATYYCARTPSGSYGRYFDLWGRGTLVTVSS VL: DIQMTQSPSTLSASVGDRVTITCRASQSISTWLAWYQQKPGKAPKLLIYEASSLESGVPSRFSGSGSGTEFTLTISSLQPDDFATYYCQQYNSYWTFGQGTKVEIKR is ____.
0.26

// data source = patent US20210170043A1
